Reference for the values: PubChem BioAssay (NCATS)

- Tested on: PC15
- Protocol details: qHTS profiling for inhibitors of Plasmodium falciparum proliferation (AID 504749); further: nearly all actives have a fitted effect of over 60% in size
- Assay conditions: P. falciparum in erythrocytes, SYBR Green DNA, 72 h; series mostly up to 28.7 µM
Results filed as inconclusive are left out. Active and inactive are the calls of the source. The call rests on the fitted dose curve; in most records, active means well fitted inhibition curve with a large enough effect; inconclusive means small, poorly fitted or top-dose-only effect; inactive means flat fitted curve, though single readings scatter. Peptide text beside a SMILES is read from it.
Outcome codes: t = active, f = inactive

>>> print(df.to_string())
                                   compound  category
0                          COC(=O)CCC(=O)CN         f
1  CC(=O)N[C@@H](CC(=O)O)C(=O)N[C@@H](CCC(=O)O)C(=O)O (Ac-Asp-Glu-OH)         f
2  CCOC(=O)C1=C(C)NC(C)=C(C(=O)OCC)C1c1ccccc1C=CC(=O)OC(C)(C)C         t
3                   CC[N+](C)(C)Cc1ccccc1Br         f
4  CCCCCCC(O)C/C=C/CCCCCCCC(=O)O (stereo not drawn)         f
5         O=C(Nc1ccc(Br)cc1)c1cc(Br)c(Br)s1         f
6  Cc1c(C)c2c(c(C)c1O)CC[C@@](C)(CCC[C@H](C)CCC[C@H](C)CCCC(C)C)O2         f
7                                 O=CCCCC=O         f
